# CC50 values compiled below
- Experimental details: Cytotoxicity against human CEM/0 cells
- Assay type: cell-based, CCRF-CEM
Answer in µM, number only, no unit symbol.

Here's what some known entries look like.
Chemical structure: COC(=O)[C@H](C)N[P@@](=O)(OC[C@@H]1C=C[C@H](n2cc(C)c(=O)[nH]c2=O)O1)Oc1cccc2ccccc12
Outcome measure: CC50
Val: 107
--
Chemical structure: COC(=O)[C@H](C)N[P@](=O)(OC[C@@H]1C=C[C@H](n2cc(C)c(=O)[nH]c2=O)O1)Oc1cccc2ccccc12
Outcome measure: CC50
Val: 70
--
Chemical structure: COC(=O)[C@H](C)N[P@](=O)(OC[C@@H]1C=C[C@H](n2cc(C)c(=O)[nH]c2=O)O1)Oc1ccc(OC)cc1
Outcome measure: CC50
Val: 77

Fill in the blank: the reported CC50 of `COC(=O)[C@H](C)N[P@@](=O)(OC[C@@H]1C=C[C@H](n2cc(C)c(=O)[nH]c2=O)O1)Oc1ccc(OC)cc1` is ____. 235

# repeat for `COC(=O)[C@H](C)N[P@](=O)(OC[C@@H]1C=C[C@H](n2cc(C)c(=O)[nH]c2=O)O1)Oc1ccc(C)cc1` 79

====

- Test system: Moloney murine sarcoma virus
- Experimental details: Antiviral activity against murine sarcoma virus infected in murine C3H/3T3 cells assessed as inhibition of virus-induced cell transformation
// returns false (0) unless EC50 is strictly below 2 µM, in which case true (1)

Compound: COC(=O)[C@H](C)N[P@](=O)(OC[C@@H]1C=C[C@H](n2cc(C)c(=O)[nH]c2=O)O1)Oc1ccccc1C
Experimental system: Moloney murine sarcoma virus
Group: false (0)
--
Compound: Cc1cn([C@H]2C=C[C@@H](CO)O2)c(=O)[nH]c1=O [STAVUDINE]
Experimental system: Moloney murine sarcoma virus
Group: false (0)
--
Compound: COC(=O)[C@H](C)N[P@@](=O)(OC[C@@H]1C=C[C@H](n2cc(C)c(=O)[nH]c2=O)O1)Oc1ccccc1C
Experimental system: Moloney murine sarcoma virus
Group: false (0)

# TODO verify EC50 < 2 µM strictly for this compound: `COC(=O)[C@H](C)N[P@@](=O)(OC[C@@H]1C=C[C@H](n2cc(C)c(=O)[nH]c2=O)O1)Oc1ccc(OC)cc1` false (0)

Repeat for the following compound: `COC(=O)[C@H](C)N[P@@](=O)(OC[C@@H]1C=C[C@H](n2cc(C)c(=O)[nH]c2=O)O1)Oc1cccc2ccccc12` true (1)

Also need `COC(=O)[C@H](C)N[P@](=O)(OC[C@@H]1C=C[C@H](n2cc(C)c(=O)[nH]c2=O)O1)Oc1cccc2ccccc12` , thanks. true (1)

How about `COC(=O)[C@H](C)N[P@](=O)(OC[C@@H]1C=C[C@H](n2cc(C)c(=O)[nH]c2=O)O1)Oc1ccc(C)cc1` ? true (1)

Entry `COC(=O)[C@H](C)N[P@@](=O)(OC[C@@H]1C=C[C@H](n2cc(C)c(=O)[nH]c2=O)O1)Oc1ccc(C)cc1` please true (1)
